molecular target: AgFus1; assay: SPOT peptide array binding signal intensity (averaged, normalized) (arbitrary units (background-subtracted, floor 0; scale differs between SH3 domains)); higher = stronger binding of the SH3 domain to the peptide
Entries and their SPOT peptide array binding signal intensity
Answer with the value's number alone.

Here's what some known entries look like.
{"BINDER": "RSRRSSFAYPQQVAI", "TEST VALUE": 200}
{"BINDER": "DHPKGPPPPPPPDEK", "TEST VALUE": 6.5}
{"BINDER": "GRLRPKRIAPWHLIQ", "TEST VALUE": 106}
{"BINDER": "GSKSGPPPRPKKPST", "TEST VALUE": 23}
{"BINDER": "NSVPIMPTLPPRPYI", "TEST VALUE": 20.5}
{"BINDER": "LRIKRKPVQTFFEFI", "TEST VALUE": 398}

Task item: Return value of SPOT peptide array binding signal intensity for input "GKKVRPLLVLLLSRA" , no commentary.
Reply: 3030

Task item: Complete the entry with SPOT peptide array binding signal intensity for "LLLLFVPDSPYDPAI"
Reply: 2370

Task item: Return SPOT peptide array binding signal intensity for the following binder: "EAEEAAPQLPSRSSA"
Reply: 8
